measured target: T1, human HER2 His6 protein, extracellular domain (NCBI NP_004439.2, Met 1-Thr 652), C-terminal polyhistidine tag (human, UniProt P04626 23-652)
T1 construct: range 1-652; The stated range includes Met 1; also called HER2-ECD; human HER2-ECD
method description: called SPR, run on ForteBio OCTET R2; antibody captured on Protein A sensor, HER2 protein at 500-31.3 nM as analyte, 25 °C
assay endpoint: Kd
A bare number is not enough; add the unit after it.

* HER2 VHH-FC1 fusion protein 2-F03 (Fc fusion, 25; also called 2-F03-FC1; chimeric nanobody 2-F03) EVQLVESGGGLVQPGGSLRLSCAASGLTFRRYHMSWYRQAPGKERELVAVISDTGTTNYAESVKGRFTISRDNSRSTVFLQLNSLKPDDTAVYYCNGRWPAVAADWWGQGTQVTVSSEPKSSDKTHTCPPCPAPEFEGGPSVFLFPPKPKDTLMISRTPEVTCVVVDVSHEDPEVKFNWYVDGVEVHNAKTKPREEQYNSTYRVVSVLTVLHQDWLNGKEYKCKVSNKALPASIEKTISKAKGQPREPQVYTLPPSRDELTKNQVSLTCLVKGFYPSDIAVEWESNGQPENNYKTTPPVLDSDGSFFLYSKLTVDKSRWQQGNVFSCSVMHEALHNHYTQKSLSLSPGK | 23.2 nM

With those in mind, consider the next binder.
q: Identify Kd associated with the binder HER2 VHH-FC1 fusion protein 1-C09 (Fc fusion, 25; also called 1-C09-FC1; 1-C9-FC1) DVQLVESGGGLVQPGGSLRLSCEASGLTFRRYHFSWYRQPPGKERELVAVISDTGSTTNYTDSVKGRFTISRDLARNTVFLQLNSLKPDDTAVYYCNAKWPIIAADWWGQGTQVTVSSEPKSSDKTHTCPPCPAPEFEGGPSVFLFPPKPKDTLMISRTPEVTCVVVDVSHEDPEVKFNWYVDGVEVHNAKTKPREEQYNSTYRVVSVLTVLHQDWLNGKEYKCKVSNKALPASIEKTISKAKGQPREPQVYTLPPSRDELTKNQVSLTCLVKGFYPSDIAVEWESNGQPENNYKTTPPVLDSDGSFFLYSKLTVDKSRWQQGNVFSCSVMHEALHNHYTQKSLSLSPGK
a: 12.1 nM
